Just for reference, patent US20140128385A1 is where these values come from.

// IC50 lookup, one value per entry
# Assay system: BACE-2 (Homo sapiens)
# Construct: Recombinant BACE-2 (extracellular domain, expressed in baculovirus and purified using standard methods)
# Sequence (Q9Y5Z0 63-473 limits assumed): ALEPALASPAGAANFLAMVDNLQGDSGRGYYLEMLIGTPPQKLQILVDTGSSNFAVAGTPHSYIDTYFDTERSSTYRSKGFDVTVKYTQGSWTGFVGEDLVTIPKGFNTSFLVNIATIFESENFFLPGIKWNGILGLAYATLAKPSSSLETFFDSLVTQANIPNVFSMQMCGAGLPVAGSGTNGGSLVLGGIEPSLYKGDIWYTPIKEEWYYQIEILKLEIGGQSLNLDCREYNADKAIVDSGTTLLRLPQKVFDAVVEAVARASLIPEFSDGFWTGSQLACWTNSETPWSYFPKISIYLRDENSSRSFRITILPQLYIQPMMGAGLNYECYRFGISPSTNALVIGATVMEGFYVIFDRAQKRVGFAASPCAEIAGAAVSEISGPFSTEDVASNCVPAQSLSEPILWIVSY
# Assay explanation: assay for inhibition of BACE-2
Where a name gives a salt, the structure may show the parent alone.

Compound | IC50 (nM)
CC1(c2cc(NC(=O)c3ccc(Cl)cn3)ccc2F)N=C(N)COCC1(F)F (centres unmarked) | 17
CC(=O)N1CC(N)=NC(c2cc(NC(=O)c3ncc(OC(F)F)cc3C)ccc2F)(C(F)F)C1 (centres unmarked) | 89
Cc1ccc(C(=O)Nc2cccc(C3(C)COCC(N)=N3)c2)nc1 (centres unmarked) [Example 27, hydrochloride] | 374
[2H]C([2H])([2H])Oc1cnc(C(=O)Nc2ccc(F)c([C@]3(C(F)F)COCC(N)=N3)c2)c(C)c1 | 64
Cc1cc(Br)cnc1C(=O)Nc1cccc([C@]2(C)COCC(=N)N2)c1 [Example 29, hydrochloride] | 21
NC1=N[C@@](c2cc(NC(=O)c3ccc(C(F)F)cn3)ccc2F)(C(F)F)COC1 | 180
CN1CC(C)(c2cc(NC(=O)c3ncc(Cl)cc3Cl)ccc2F)N=C(N)C1=O (centres unmarked) [Example 192, hydrochloride] | 13
NC1=NC(CF)(c2cc(NC(=O)c3ccc(Cl)cn3)ccc2F)COC1 (centres unmarked) | 25
